Data provenance is patent US11945792B2.

# Protocol text: Equilibrium solubility in water at room temperature for 24 hours
# Assay type: physicochemical
# Measurement context: solubility test in water, room temperature, 24 hours
# Experimental: 10 mg of Type A, B, D, and F samples each was added into a 1.5-mL glass vial, and 1.0 mL of water was then added. The mixture was rolled at 25 rpm at room temperature for 24 hours. The suspension was centrifuged and filtered to isolate the supernatant for HPLC concentration and purity testing and the residual solids were characterized by XRPD.
Experimental endpoint: pH

C=CC(=O)N1CCC(c2ccc(C(N)=O)c(-c3ccc(Oc4ccccc4)cc3)n2)CC1 [Type B]    7.7
C=CC(=O)N1CCC(c2ccc(C(N)=O)c(-c3ccc(Oc4ccccc4)cc3)n2)CC1 [Type A]    7.4
C=CC(=O)N1CCC(c2ccc(C(N)=O)c(-c3ccc(Oc4ccccc4)cc3)n2)CC1 [Type D]    8.0
C=CC(=O)N1CCC(c2ccc(C(N)=O)c(-c3ccc(Oc4ccccc4)cc3)n2)CC1 [Type F]    6.9
